Each recorded value in this set is attributed to the RNAGym collection of RNA variant scans (doi:10.1021/acssynbio.7b00057).

B1: Pistol ribozyme (parent)
chain: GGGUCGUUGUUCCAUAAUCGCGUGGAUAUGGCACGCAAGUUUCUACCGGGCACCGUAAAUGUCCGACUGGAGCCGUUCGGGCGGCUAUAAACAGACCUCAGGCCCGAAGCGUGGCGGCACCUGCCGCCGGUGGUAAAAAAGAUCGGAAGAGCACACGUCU

Variants of: B1
Test: aptazyme ON/OFF ratio, guanine; higher = stronger switching; co-transcriptional cleavage with and without guanine
Can you tell me aptazyme ON/OFF ratio for the items I'm about to list?

Value of measured aptazyme ON/OFF ratio for the entry U7A G9A U11G C12U C13G : 1.2

U7C U8C U10A U11G C12A C13G yielded aptazyme ON/OFF ratio of 1.11

Documented aptazyme ON/OFF ratio of U7G U8G G9C U10C U11C C12U C13U : 1.06

Reported aptazyme ON/OFF ratio for U7G G9U U10A U11A C12A was 1.3

Lab note: measured aptazyme ON/OFF ratio of U7A U8C G9U U10C U11G C12G was 1.06

variant U7C U8C G9A U11A C12A C13U , aptazyme ON/OFF ratio observed: 1.38

Noted for U8C G9A : its aptazyme ON/OFF ratio reads 1.78

Form field aptazyme ON/OFF ratio, entry U7G U8G G9A U10A U11G C12U C13G : 1.12

Data point: U8A G9C U10A U11A C12G C13G ; aptazyme ON/OFF ratio = 1.23

Per the records, this variant ( U7A U8C U10G U11G C12A ) has aptazyme ON/OFF ratio equal to 1.25

Value of aptazyme ON/OFF ratio reported for the variant U7G U8C G9U U10A C12G C13G is 1.08

What the record says about U8G U10A U11A C12G C13G : aptazyme ON/OFF ratio is 1.21

Looking up U7A G9A U11G C13A , I found its aptazyme ON/OFF ratio recorded as 1.26

Summary for this variant, U7C U8G G9A U11A C12G C13U : aptazyme ON/OFF ratio is 1.08

Note to self: aptazyme ON/OFF ratio recorded for U7C U8A G9U U11C was 1.07

// aptazyme ON/OFF ratio value for U8G U11G C12G : 1.18

Noted for G9C U11C C12U C13A : its aptazyme ON/OFF ratio reads 1.09

Quick note, aptazyme ON/OFF ratio for U7G U8G G9C U10C C12A C13U landed at 1.25

Measured aptazyme ON/OFF ratio of U7G U8A G9U U10C U11C C12A C13A : 1.09

The recorded aptazyme ON/OFF ratio for entry U7G U8G G9U U10C U11A C12U C13A equals 1.35

variant G9A U10A U11C C12A C13G , aptazyme ON/OFF ratio observed: 1.23

Kindly note the recorded aptazyme ON/OFF ratio for U7G U8G G9U U10C U11A C12G C13A , which is 1.14

Reported aptazyme ON/OFF ratio for U7C U8C U10A C12G C13A was 1.12

Record summary for U7A U8A G9A U10C U11C C12A C13U : reported aptazyme ON/OFF ratio = 1.07

Summary for this variant, U8G U10A C13U : aptazyme ON/OFF ratio is 1.19

The variant identified as U7C U8C G9U C13A registered its aptazyme ON/OFF ratio at 1.02

// field: aptazyme ON/OFF ratio; key: U7C G9U U10G U11C C12A C13A ; value = 1.17

Just so you know, measured aptazyme ON/OFF ratio for U7C G9A U10C C12U C13A came out at 1.2

The variant listed as U7C U8A G9U U10C C12A C13G has a reported aptazyme ON/OFF ratio of 1.15

aptazyme ON/OFF ratio recorded for this variant, U8G G9U U10A U11C C12U C13U , is 1.05

Measured aptazyme ON/OFF ratio, G9U C12A C13U : 1.1

For reference, reported aptazyme ON/OFF ratio for U8A G9A U10G U11G C12G C13G stands at 1.07

Just so you know, measured aptazyme ON/OFF ratio for U8A G9A U10A U11G C13U came out at 1.18

Memo: U8G G9U U11A C12U C13A , reported aptazyme ON/OFF ratio: 1.19

response.value for U7G U8C G9U U10G U11G C13U (field: aptazyme ON/OFF ratio) = 1.36

Sure, the documented aptazyme ON/OFF ratio for U7G U8C G9A U10G U11G C12U is 1.35

U7A U8G U10A U11C C12G C13A yielded aptazyme ON/OFF ratio of 1.56

Entry U7G U8A G9C U10C C12G C13A ; aptazyme ON/OFF ratio = 1.14

Input U7A U8G G9U U10G C12G . Output aptazyme ON/OFF ratio: 1.15

Entry under test: U7G U8G G9U U10C U11A C13U . Its aptazyme ON/OFF ratio was 1.23

Sample U7A U8G U10A C12G C13U ; aptazyme ON/OFF ratio observed: 1.21

Entry U7C U8C G9A U10G ; aptazyme ON/OFF ratio = 1.56

Record U7G U8C G9U U10G U11A C13G . Reported aptazyme ON/OFF ratio: 1.07

aptazyme ON/OFF ratio reported for this variant U8C G9C U10C U11A C13G : 1.08

The reported aptazyme ON/OFF ratio of the variant U7A U8A G9U U10A U11A C12G C13A was 1.15

aptazyme ON/OFF ratio recorded for this variant, U7C U8A G9C U10A C12U , is 1.22
